Values compiled from paper PMC11988034.

# assay: Plasma toceranib concentration (LC–MS/MS) in dogs with solid tumors treated with TOC
# Format: in vivo
# setup-conditions: dog, plasma, po, dogs without tumor recurrence; read-out: mean Cmax at week 1
observed-property: Cmax (ng/mL)
Answers are plain numbers, in ng/mL.

INPUT: GET /values?readout=Cmax&item= Cc1[nH]c(/C=C2\C(=O)Nc3ccc(F)cc32)c(C)c1C(=O)NCCN1CCCC1 [TOC, Toceranib phosphate]
OUTPUT: 77

###

# assay: Plasma toceranib concentration (LC–MS/MS) in dogs with solid tumors treated with TOC
# Format: in vivo
# setup-conditions: dog, plasma, po, dogs with tumor recurrence; read-out: mean Cmax at week 1
observed-property: Cmax (ng/mL)
Numbers only, in ng/mL.

INPUT: Report Cmax for Cc1[nH]c(/C=C2\C(=O)Nc3ccc(F)cc32)c(C)c1C(=O)NCCN1CCCC1 [TOC, Toceranib phosphate] please.
OUTPUT: 74.6

###

# assay: Plasma toceranib concentration (LC–MS/MS) in dogs with solid tumors treated with TOC
# Type: in vivo
# setup-conditions: dog, plasma, oral, dogs without AEs; read-out: mean Cmin
# Experimental: A prospective, randomized clinical trial was conducted on client-owned dogs diagnosed with malignant solid tumors between May 2022 and October 2023 at the Konkuk University Animal Cancer Center. […] Plasma toceranib was quantitated via high-performance liquid chromatography with tandem mass spectrometry detection (LC-MS/MS). […] Toceranib concentrations were determined via interpolation across a range of 5-500 ng/mL. Continuous variables are expressed as the mean ± standard deviation. […]
observed-property: concentration at 48 h (ng/mL)
Numbers only, in ng/mL.

INPUT: GET /values?readout=concentration at 48 h&item= Cc1[nH]c(/C=C2\C(=O)Nc3ccc(F)cc32)c(C)c1C(=O)NCCN1CCCC1 [TOC, Toceranib phosphate]
OUTPUT: 14.9

###

# assay: Plasma toceranib concentration (LC–MS/MS) in dogs with solid tumors treated with TOC
# Assay type: in vivo
# setup-conditions: dog, plasma, po, dogs with AEs; read-out: mean Cmax on average
observed-property: Cmax (ng/mL)
Answers are plain numbers, in ng/mL.

INPUT: For the molecule shown here, Cc1[nH]c(/C=C2\C(=O)Nc3ccc(F)cc32)c(C)c1C(=O)NCCN1CCCC1 [TOC, Toceranib phosphate] , give the reported Cmax.
OUTPUT: 86.2
